- study target: mouse Tas2r108 (Mus musculus, UniProt Q9JKT3)
- Construct: expressed in transfected cells; host or cells: HEK293T-Gα16gust44
- Sequence (Q9JKT3 1-297): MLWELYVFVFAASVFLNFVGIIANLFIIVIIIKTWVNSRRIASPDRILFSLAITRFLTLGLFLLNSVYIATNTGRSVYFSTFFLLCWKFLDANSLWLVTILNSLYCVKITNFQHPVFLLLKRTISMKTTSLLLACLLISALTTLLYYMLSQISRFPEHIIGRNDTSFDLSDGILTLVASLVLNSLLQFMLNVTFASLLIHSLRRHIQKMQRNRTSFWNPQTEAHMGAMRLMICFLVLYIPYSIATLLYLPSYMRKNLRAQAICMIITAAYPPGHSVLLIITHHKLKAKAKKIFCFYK
- assay procedure: Calcium imaging assay (FLIPR), HEK293T-Gα16gust44 cells transfected with mouse Tas2r108
- Format: cell-based
- condition parameters: Time 197.562 s
Let's look at some compounds and their measured RLU.
measure name: RLU (RLU)

compound	measure name	measured value
C[C@H](CCC(=O)NCCS(=O)(=O)O)[C@H]1CC[C@H]2[C@@H]3[C@H](O)C[C@@H]4C[C@H](O)CC[C@]4(C)[C@H]3C[C@H](O)[C@]12C [Taurocholic Acid, taurocholic acid]	RLU	239.899
C[C@H](CCC(=O)O)[C@H]1CC[C@H]2[C@@H]3[C@H](O)C[C@@H]4C[C@H](O)CC[C@]4(C)[C@H]3C[C@H](O)[C@]12C [Cholic Acid, cholic acid]	RLU	167.018
C[C@H](CCC(=O)O)[C@H]1CC[C@H]2[C@@H]3CC[C@@H]4C[C@H](O)CC[C@]4(C)[C@H]3C[C@H](O)[C@]12C [Deoxycholic Acid, deoxycholic acid]	RLU	533.421
C[C@H](CCC(=O)NCC(=O)O)[C@H]1CC[C@H]2[C@@H]3[C@H](O)C[C@@H]4C[C@H](O)CC[C@]4(C)[C@H]3C[C@H](O)[C@]12C [Glycocholic Acid, glycocholic acid]	RLU	173.368
